# Study system: EPHB1 (UniProt P54762)
# Sequence (P54762 whole entry, looked up): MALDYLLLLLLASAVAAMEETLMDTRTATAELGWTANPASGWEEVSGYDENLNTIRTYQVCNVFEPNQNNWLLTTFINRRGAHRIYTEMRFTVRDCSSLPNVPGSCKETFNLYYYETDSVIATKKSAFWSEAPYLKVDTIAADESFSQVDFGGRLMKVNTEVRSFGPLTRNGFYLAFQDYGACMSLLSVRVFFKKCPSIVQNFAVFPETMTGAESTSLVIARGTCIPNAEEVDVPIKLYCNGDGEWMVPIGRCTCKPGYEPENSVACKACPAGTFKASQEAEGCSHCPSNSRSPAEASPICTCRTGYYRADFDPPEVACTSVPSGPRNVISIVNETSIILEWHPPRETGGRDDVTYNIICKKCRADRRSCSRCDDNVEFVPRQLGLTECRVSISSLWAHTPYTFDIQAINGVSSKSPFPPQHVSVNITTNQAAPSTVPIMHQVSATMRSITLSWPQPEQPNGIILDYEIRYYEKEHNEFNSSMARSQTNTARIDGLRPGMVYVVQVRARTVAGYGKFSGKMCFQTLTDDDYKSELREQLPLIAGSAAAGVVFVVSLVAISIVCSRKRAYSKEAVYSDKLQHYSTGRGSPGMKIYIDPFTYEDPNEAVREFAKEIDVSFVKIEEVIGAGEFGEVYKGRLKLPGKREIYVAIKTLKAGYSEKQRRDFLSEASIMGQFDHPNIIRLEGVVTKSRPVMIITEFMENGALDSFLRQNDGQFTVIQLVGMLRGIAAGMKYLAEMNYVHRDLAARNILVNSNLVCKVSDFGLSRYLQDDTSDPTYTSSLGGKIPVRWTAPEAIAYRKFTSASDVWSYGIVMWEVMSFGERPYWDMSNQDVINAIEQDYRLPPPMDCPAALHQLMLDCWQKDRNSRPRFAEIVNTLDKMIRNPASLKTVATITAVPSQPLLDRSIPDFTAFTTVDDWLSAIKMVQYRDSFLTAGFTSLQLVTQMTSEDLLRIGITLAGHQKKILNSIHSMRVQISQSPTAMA
# Method description: phosphorylation enrichment, bacterial display (enrichment ratio); higher = better substrate or ligand; peptides without Tyr show the background
Metric name: phosphorylation enrichment
Give bare numbers.

A selection of reference data follows.
Input: GET /values?readout=phosphorylation enrichment&item= DRPSEYAARQL [ANXA13_Y90]
Output: 0.408

Input: GET /values?readout=phosphorylation enrichment&item= SLDHPFEKPRK [INAVA_Y333_Y333F]
Output: 0.317

Input: GET /values?readout=phosphorylation enrichment&item= NLMPAYHKCIQ [CYP21A2_Y190_Y191H]
Output: 0.501

Input: GET /values?readout=phosphorylation enrichment&item= LVSCTYQLARG [FGFR2_Y608]
Output: 0.536

Input: GET /values?readout=phosphorylation enrichment&item= PGQRVYVVAES [SHH_Y316_R321S]
Output: 0.695

Each of the following entries comes with a recorded value; kindly state phosphorylation enrichment for each.
1. ALECLYHREKR [TEKT5_Y195]
2. RLNCIYYKDQT [RS1_Y165_W163C]
3. FEEDSYVKRSQ [RET_Y905_YF]
4. LGLDECLDKLK [FMNL2_Y352_Y352C]
5. NQELIYEGQRL [TBK1_Y354_R357Q]
6. MTKEQYIKMNR [ARFGEF2_Y797]
7. FQHLRYIKQLG [SAMHD1_Y146_R143H]

Output:
[0.618, 0.722, 0.52, 1.05, 1, 0.365, 0.374]

Each of the following entries comes with a recorded value; kindly state phosphorylation enrichment for each.
1. KDPPDYKFQPR [SOX9_Y172_H169P_YF]
2. CGLPRYRWLTH [TSPAN12_Y143_Y138C]

Output:
0.343
0.47

---

Hi there, I'd appreciate the recorded phosphorylation enrichment for every entry that follows.
# Study system: Fes (UniProt P07332)
# Sequence (P07332 whole entry, looked up): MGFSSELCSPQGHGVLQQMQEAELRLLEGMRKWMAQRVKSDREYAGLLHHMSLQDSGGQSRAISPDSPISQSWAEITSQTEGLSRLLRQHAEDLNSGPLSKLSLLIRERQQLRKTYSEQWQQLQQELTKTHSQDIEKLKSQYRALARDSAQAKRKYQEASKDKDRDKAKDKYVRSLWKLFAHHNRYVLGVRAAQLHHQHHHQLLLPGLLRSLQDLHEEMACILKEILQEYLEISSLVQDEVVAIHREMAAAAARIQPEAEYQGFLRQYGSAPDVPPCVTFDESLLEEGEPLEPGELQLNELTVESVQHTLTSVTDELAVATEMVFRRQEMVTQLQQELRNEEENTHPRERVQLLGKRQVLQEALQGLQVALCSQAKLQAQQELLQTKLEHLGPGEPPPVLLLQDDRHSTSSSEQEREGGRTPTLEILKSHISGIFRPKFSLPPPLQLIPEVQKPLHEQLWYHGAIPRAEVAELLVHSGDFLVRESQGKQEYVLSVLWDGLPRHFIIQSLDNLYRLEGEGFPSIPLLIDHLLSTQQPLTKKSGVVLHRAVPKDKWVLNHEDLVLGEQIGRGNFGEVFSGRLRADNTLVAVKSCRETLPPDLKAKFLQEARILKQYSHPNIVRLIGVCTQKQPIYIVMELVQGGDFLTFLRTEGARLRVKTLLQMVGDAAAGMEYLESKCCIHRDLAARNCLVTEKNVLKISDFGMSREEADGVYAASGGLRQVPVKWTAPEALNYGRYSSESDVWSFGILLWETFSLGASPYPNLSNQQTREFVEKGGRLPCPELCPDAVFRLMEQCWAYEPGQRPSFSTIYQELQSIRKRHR
# Method description: phosphorylation enrichment, bacterial display (enrichment ratio); higher = better substrate or ligand; peptides without Tyr show the background
Give bare numbers.

A selection of reference data follows.
Input: GET /values?readout=phosphorylation enrichment&item= GVYSRHFTTYD [CLCA1_Y661_Y661H]
Output: 0.657

Input: GET /values?readout=phosphorylation enrichment&item= LGRKLYSIATP [ABHD12_Y345_A349T]
Output: 1.18

Input: GET /values?readout=phosphorylation enrichment&item= TEQDPYNNIVH [MMUT_Y364_R369H]
Output: 0.965

Input: GET /values?readout=phosphorylation enrichment&item= ARGMEYLASKK [FGFR1_Y613]
Output: 0.566

Input: GET /values?readout=phosphorylation enrichment&item= CEHRGSLYLAI [TEK_Y897_Y897S]
Output: 1.24

Input: GET /values?readout=phosphorylation enrichment&item= ENKGVYVLMSG [IVD_Y277]
Output: 1.26

Would you kindly look at the next entry?
Input: GET /values?readout=phosphorylation enrichment&item= TSNQEYLYLSM [FGFR1_Y766_D768Y]
Output: 1.31

---

# Study system: c-Src SH2;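 also: peptide library displayed on the E. coli surface as eCPX fusions, selected cells deep-sequenced, score is each peptide's frequency after selection divided by its frequency in the input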
# Method description: SH2 binding enrichment of the phosphorylated peptide, bacterial display (enrichment ratio); higher = better substrate or ligand; peptides without Tyr show the background
Criterion: SH2 binding enrichment meeting or surpassing 0.9. Met: T. Not met: F.

# example entries with known answers
Input: Answer whether SH2 binding enrichment of SSSGAYGGGFG [KRT19_Y61_YF] is greater than or equal to 0.9.
Output: F

Input: Answer whether SH2 binding enrichment of ALHRPYGCDVE [ABL2_Y80] is greater than or equal to 0.9.
Output: F

Input: Answer whether SH2 binding enrichment of ARAFIYAIIPA [ACKtide_2014] is greater than or equal to 0.9.
Output: F

Input: Answer whether SH2 binding enrichment of SHTPSYCDEWL [RITA1_Y109_S113W] is greater than or equal to 0.9.
Output: T

Input: Answer whether SH2 binding enrichment of DPHECYAKVFN [ALB_Y394_D399N] is greater than or equal to 0.9.
Output: T

# evaluate next
Input: Answer whether SH2 binding enrichment of LNARHYGGLTG [PGAM2_Y92_E89A] is greater than or equal to 0.9.
Output: F

---

# Study system: Hck (UniProt P08631)
# Sequence (P08631 whole entry, looked up): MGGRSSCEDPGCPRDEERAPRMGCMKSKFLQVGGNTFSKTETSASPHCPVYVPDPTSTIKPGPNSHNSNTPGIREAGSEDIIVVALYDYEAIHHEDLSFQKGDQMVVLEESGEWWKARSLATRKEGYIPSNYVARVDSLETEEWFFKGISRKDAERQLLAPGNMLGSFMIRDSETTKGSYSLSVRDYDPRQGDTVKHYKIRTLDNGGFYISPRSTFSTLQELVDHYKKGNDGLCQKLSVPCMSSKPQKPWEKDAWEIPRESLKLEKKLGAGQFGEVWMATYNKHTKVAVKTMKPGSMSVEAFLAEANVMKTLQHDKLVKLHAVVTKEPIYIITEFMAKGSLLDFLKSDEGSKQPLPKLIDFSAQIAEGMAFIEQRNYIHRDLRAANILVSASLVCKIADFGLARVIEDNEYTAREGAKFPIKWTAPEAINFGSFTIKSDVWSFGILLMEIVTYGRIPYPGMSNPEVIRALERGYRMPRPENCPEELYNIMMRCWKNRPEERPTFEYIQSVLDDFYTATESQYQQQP
# Method description: phosphorylation enrichment, bacterial display (enrichment ratio); higher = better substrate or ligand; peptides without Tyr show the background
Criterion: phosphorylation enrichment meeting or surpassing 0.6. Met: True. Not met: False.

# example entries with known answers
Input: Answer whether phosphorylation enrichment of PGAGHYEDTIL [ALK_Y1604] is greater than or equal to 0.6.
Output: True

Input: Answer whether phosphorylation enrichment of ADGLEYSRTEL [MMUT_Y287_G291E] is greater than or equal to 0.6.
Output: False

Input: Answer whether phosphorylation enrichment of KLRMESLSLMH [NCKIPSD_Y660_Y660S] is greater than or equal to 0.6.
Output: False

Input: Answer whether phosphorylation enrichment of SVVLPYEPPEV [TP53_Y220_V218L] is greater than or equal to 0.6.
Output: False

Input: Answer whether phosphorylation enrichment of KFDLMYAKLAF [TUBA1A_Y399_R402L] is greater than or equal to 0.6.
Output: True

---
Input: Answer whether phosphorylation enrichment of EEGESDVCSSD [DCX_Y125_Y125D] is greater than or equal to 0.6.
Output: False

Input: Answer whether phosphorylation enrichment of RENGPYFASFP [GDAP2_Y487_T489A_YF] is greater than or equal to 0.6.
Output: False

Input: Answer whether phosphorylation enrichment of FCRHNYGVGES [HLA-DRB1_Y112_V115G_YF] is greater than or equal to 0.6.
Output: False

Input: Answer whether phosphorylation enrichment of KIVQDYLEKFY [MMP8_Y36_T32I] is greater than or equal to 0.6.
Output: False

Input: Answer whether phosphorylation enrichment of SQQTFYPVSNM [ABCD1_Y181_R182P_YF] is greater than or equal to 0.6.
Output: False

Input: Answer whether phosphorylation enrichment of FVSIVCNDSGE [TSC2_Y1650_Y1650C] is greater than or equal to 0.6.
Output: False

---

# Study system: Fyn (UniProt P06241)
# Sequence (P06241 whole entry, looked up): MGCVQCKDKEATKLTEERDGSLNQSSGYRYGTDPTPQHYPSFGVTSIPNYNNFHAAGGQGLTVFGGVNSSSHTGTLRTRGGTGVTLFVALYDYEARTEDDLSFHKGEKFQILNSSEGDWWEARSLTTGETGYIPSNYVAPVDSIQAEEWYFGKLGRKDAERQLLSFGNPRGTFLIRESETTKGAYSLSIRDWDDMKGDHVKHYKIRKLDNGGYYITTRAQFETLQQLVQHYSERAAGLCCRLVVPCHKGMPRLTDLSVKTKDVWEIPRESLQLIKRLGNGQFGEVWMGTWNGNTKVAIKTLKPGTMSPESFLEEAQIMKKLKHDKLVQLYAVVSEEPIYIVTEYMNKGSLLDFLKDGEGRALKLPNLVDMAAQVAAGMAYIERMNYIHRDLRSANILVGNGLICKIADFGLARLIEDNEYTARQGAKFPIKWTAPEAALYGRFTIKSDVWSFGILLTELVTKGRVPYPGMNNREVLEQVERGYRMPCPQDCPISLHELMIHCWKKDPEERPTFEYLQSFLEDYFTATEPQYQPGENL
# Method description: phosphorylation enrichment, bacterial display (enrichment ratio); higher = better substrate or ligand; peptides without Tyr show the background
Metric name: phosphorylation enrichment
One number for each entry.

Input: GET /values?readout=phosphorylation enrichment&item= SVVVPNEPPEV [TP53_Y220_Y220N]
Output: 0.539

Input: GET /values?readout=phosphorylation enrichment&item= LRYDSYSSYCN [SLC20A2_Y433]
Output: 0.837

Input: GET /values?readout=phosphorylation enrichment&item= FQGGTYSKACT [FGG_Y380_S384C_YF]
Output: 0.35

Input: GET /values?readout=phosphorylation enrichment&item= PFTRNYFVQAV [CYBA_Y87_R90Q_YF]
Output: 0.943

Input: GET /values?readout=phosphorylation enrichment&item= PGLRGYPGLSG [COL4A2_Y306]
Output: 0.481

Each of the following entries comes with a recorded value; kindly state phosphorylation enrichment for each.
1. NWGSPYKSNGC [ZNF347_Y261]
2. APRKVYDTRDD [ZFPL1_Y215]
3. KLRMESLSLMH [NCKIPSD_Y660_Y660S]
4. EYQKKYSDADI [CKAP5_Y1860_K1857Q]

Output:
1: 0.373; 2: 0.408; 3: 0.45; 4: 0.37

Each of the following entries comes with a recorded value; kindly state phosphorylation enrichment for each.
1. SIVEDYRPPFF [ACVRL1_Y421_G416S_YF]
2. EAVKNYTEKRG [PBRM1_Y672_D674E]
3. NVQIVYKPVDL [MAPT_Y627_S622N]

Output:
[0.378, 0.328, 0.414]

Each of the following entries comes with a recorded value; kindly state phosphorylation enrichment for each.
1. HKANEYYPVVL [ADAMTS18_Y764]
2. GLGGVYGGASG [KRT8_Y54_G53V]
3. LAVNPYGPPDP

Output:
[0.956, 0.566, 0.454]

Each of the following entries comes with a recorded value; kindly state phosphorylation enrichment for each.
1. SELVRYDARVH [MET_Y971]
2. SFSGEYGSGGG [ZG16_Y30_G32S_YF]
3. APTSGYREFVH [IL4R_Y575_Q576R]
4. YPPDGYSRHYE [CTNND1_Y213]
5. KRLYAYKMLMA [TMC2_Y209_Q205R]
6. HAEERYGKELV [PSTPIP1_Y53_Q48H]
7. FDSPFYQDSLP [TSC1_Y508_R509Q]
8. CERLPYDASKW [FLT1_Y815]

Output:
[0.456, 0.43, 0.422, 0.348, 0.327, 0.614, 0.482, 0.45]

Each of the following entries comes with a recorded value; kindly state phosphorylation enrichment for each.
1. DTDSSYCIPTA [GAB1_Y373]
2. GVLKEYGEKVL [CPS1_Y529_V531E]
3. VGGRIYIDDAL [PKLR_Y218_G222A]
4. YSIDYYRVGGH [NTRK2_Y707_T704I]
5. KNRDVSSSDYF [USP24_Y2134_Y2134S]
6. KMMGRYEMYAR [UPB1_Y362_T359M]

Output:
0.518
0.425
0.462
1.31
0.476
0.333

Each of the following entries comes with a recorded value; kindly state phosphorylation enrichment for each.
1. LSGVIYVILRK [PMP22_Y153]
2. DFPMGYPSFLA [TBCK_Y153_I151M_YF]
3. RSRRSYSCQVM [IGLL1_Y192]
4. IRRIAYEFVEM [ADA_Y84_K80R]
5. EEGNPYYSSAR [MCCC2_Y520]
6. TMKSRYMELYD [BBS2_Y644]

Output:
[0.279, 0.424, 0.808, 0.417, 0.793, 0.475]

Each of the following entries comes with a recorded value; kindly state phosphorylation enrichment for each.
1. IRQDDYESLKE [MTR_Y921_H920D]
2. RGVTHYILQTF [SLC39A4_Y359]
3. NARGLYFKLHN [GATA2_Y376_C373R_YF]
4. VKKKLYEEIDQ [CYP17A1_Y329]
5. LNEWHYGGLTG [PGAM2_Y92_R90W]
6. QSPQLYKQMCI [DARS1_Y253]

Output:
1. 0.455
2. 0.499
3. 0.487
4. 0.373
5. 0.662
6. 0.796

Each of the following entries comes with a recorded value; kindly state phosphorylation enrichment for each.
1. SYKNKYGMVAQ [APOB_Y276]
2. FSEVRYMKEPY [HIPK4_Y170_V171M]
3. EFKDAYKFAAD [BRDT_Y335_YF]

Output:
1: 0.367; 2: 0.36; 3: 0.414
